Hey, just so you know, these numbers are from the supplement of paper PMC8728848.

Below, each of the binders is paired with its reported glycan array binding signal (z-score) value.
- tested_on: Neu5Ac(a2-6)Gal(b1-4)GlcNAc(b1-3)Gal(b1-4)GlcNAc(b1-3)GalNAc
- assay_notes: glycan array binding signal (z-score within array); higher = stronger binding
- cond: glycan notation: IUPAC condensed, linker removed
Shown is part of a subset that was picked to be rich in the strongest signals.
Form: value (number only, do not type unit).

Recorded glycan array binding signal (z-score), per entry:
# binder, value_type, value_measured
measured = [
    ("HBHA-Rv (Mycobacterium tuberculosum), P0A5P6 (protein) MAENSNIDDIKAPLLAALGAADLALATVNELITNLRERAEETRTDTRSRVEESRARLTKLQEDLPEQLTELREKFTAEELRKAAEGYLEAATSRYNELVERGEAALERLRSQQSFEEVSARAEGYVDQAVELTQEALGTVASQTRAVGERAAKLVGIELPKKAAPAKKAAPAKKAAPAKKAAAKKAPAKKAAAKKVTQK", "glycan array binding signal (z-score)", -0.379),
    ("Mg1lysM (Mycosphaerella graminicola) (protein) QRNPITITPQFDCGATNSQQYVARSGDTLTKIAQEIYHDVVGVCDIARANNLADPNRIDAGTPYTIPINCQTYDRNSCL", "glycan array binding signal (z-score)", -0.091),
    ("SJCP1531 (Schistosoma japonicum) (protein) MFKVRIINLVNISTVLLLINLLQTKSQVNVEQLVTVLEVNIKAQLKNKTTEVLVEWNPLYQDNSMPEYRKLLDETCKLFLPFVNEKVPPSTYGGECTNANFSEAPQDGSYSRVNAELRLIYKYSDNPQIQTDRLQDDLNDREEFITSESSFVAYNPKFTVKIEKLFIPISESQTTPPPTTAKNDASKKDDDDNGGEDSKAPIDTFAMTASGNKGKKDDDDNGGEDSKAPIDTFAMTASGSKDERSTWTIIGIITLVVLIFVVIGGGITVFVKRC", "glycan array binding signal (z-score)", 2.87),
]

Proceeding to the next binder to report its glycan array binding signal (z-score).
-- ask Recorded glycan array binding signal (z-score) of Epa13 (Candida glabrata) (protein) MGSSHHHHHHSSGLVPRGSHMASDSSENGYAHGCSPSIRAKLKPGLSMEIYSYALRPTDDHCWDSAYLDPMFPRTGYLTHKLLGKAEGIIGPLNFLAKNPACIPAVSTLPLAFHFPKPFTITNFTMLLYGYLSPKKTGKYTFKLLADDLLLMNFGADNAFDCCSHDATKDNIGEYVAYSVWPGVNKNVTVYLESGIYYPLRLFFNNRDAIAQLDFAYYFNDSPIRQTDFSGMFFSIPDSVKCPANI , please.
-- reply -0.142
